Assign pIC50 to each entry below.
# subjectOfTest: full length human Dynamin I (Homo sapiens, UniProt Q05193)
# Construct: full length human Dynamin I expressed in Sf21 insect cells; made in house; host or cells: Sf21 insect cells
# Sequence (Q05193 1-864): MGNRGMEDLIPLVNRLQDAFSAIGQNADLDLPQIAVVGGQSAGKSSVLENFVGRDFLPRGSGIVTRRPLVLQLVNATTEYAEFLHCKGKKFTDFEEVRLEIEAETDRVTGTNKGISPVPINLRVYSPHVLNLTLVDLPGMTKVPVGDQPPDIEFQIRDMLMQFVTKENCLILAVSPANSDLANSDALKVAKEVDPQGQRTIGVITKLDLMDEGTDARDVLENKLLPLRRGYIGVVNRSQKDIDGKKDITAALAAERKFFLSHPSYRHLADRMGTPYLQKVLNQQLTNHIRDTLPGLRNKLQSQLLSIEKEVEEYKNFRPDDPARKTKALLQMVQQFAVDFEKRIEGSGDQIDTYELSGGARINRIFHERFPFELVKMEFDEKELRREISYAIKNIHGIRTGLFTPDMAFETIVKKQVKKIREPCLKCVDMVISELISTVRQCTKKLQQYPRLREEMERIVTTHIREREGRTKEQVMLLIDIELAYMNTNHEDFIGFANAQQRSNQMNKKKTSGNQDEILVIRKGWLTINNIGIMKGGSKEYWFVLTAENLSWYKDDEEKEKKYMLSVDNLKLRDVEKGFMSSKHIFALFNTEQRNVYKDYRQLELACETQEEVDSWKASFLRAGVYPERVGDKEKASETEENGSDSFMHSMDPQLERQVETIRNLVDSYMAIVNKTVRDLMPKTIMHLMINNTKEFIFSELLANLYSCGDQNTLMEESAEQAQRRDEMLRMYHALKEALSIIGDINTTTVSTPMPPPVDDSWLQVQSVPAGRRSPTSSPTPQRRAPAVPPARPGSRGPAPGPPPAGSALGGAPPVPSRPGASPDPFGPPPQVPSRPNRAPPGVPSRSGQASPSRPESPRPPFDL
# methodNotes: Dynamin GTPase activity, Malachite Green phosphate detection assay
# Assay type: biochemical
# assaySetup: Table 4, library 4; n = 1 or n = 2 as footnoted; '–' = not active at 100 μM; read-out: Dynamin 1 IC50
pIC50: −log10 of the molar value.

Example entries begin here.
O=C1N=C(NS(=O)(=O)c2cccc3ccccc23)S/C1=C\c1cn(S(=O)(=O)c2ccccc2)c2ccccc12 [compound 68] :: 4.00
O=C1N=C(NS(=O)(=O)c2cccc3ccccc23)S/C1=C\c1c[nH]c2ccc(Br)cc12 [compound 65] :: < 4.00
O=C1COc2ccc(/C=C3\SC(NS(=O)(=O)c4cccc5ccccc45)=NC3=O)cc2N1 [compound 52] :: ~4.27
Cc1[nH]c2ccccc2c1/C=C1\SC(NS(=O)(=O)c2cccc3ccccc23)=NC1=O [compound 62] :: < 4.00
O=C1N=C(NS(=O)(=O)c2cccc3ccccc23)S/C1=C\C1=Cc2ccccc2OC1 [compound 55] :: 4.16

# context switch: different compound, same pIC50
// Cc1ccc2[nH]cc(/C=C3\SC(NS(=O)(=O)c4cccc5ccccc45)=NC3=O)c2c1 [compound 63] : pIC50 value = < 4.00

---

# subjectOfTest: clathrin heavy chain NTD (amino acids 1–364) – amphiphysin 1 B/C domain protein–protein interaction (NTD‐PPI) (Homo sapiens, UniProt Q00610)
# Construct: GST‐tagged clathrin heavy chain NTD (amino acids 1–364); made in house
# Sequence (Q00610 1-364): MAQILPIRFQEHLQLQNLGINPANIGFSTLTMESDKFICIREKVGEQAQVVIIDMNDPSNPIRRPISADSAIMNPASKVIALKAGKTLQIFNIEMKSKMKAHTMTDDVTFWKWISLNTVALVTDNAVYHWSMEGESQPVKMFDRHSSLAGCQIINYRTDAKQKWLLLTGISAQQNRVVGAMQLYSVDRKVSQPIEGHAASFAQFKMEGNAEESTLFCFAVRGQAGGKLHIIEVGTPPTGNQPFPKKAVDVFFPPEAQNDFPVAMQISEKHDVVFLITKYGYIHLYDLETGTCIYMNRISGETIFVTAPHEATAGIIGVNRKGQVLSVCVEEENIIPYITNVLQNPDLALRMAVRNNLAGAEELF
# methodNotes: ELISA-based clathrin inhibitor binding assay (NTD-PPI)
# assaySetup: Table 3, library 3; ELISA, average of duplicate measurements (n = 2); read-out: NTD‐PPI IC50
measuredMetric: pIC50
One number for each entry, as −log10 of the molar value.

Consider the worked cases shown below.
CCCC/C=C1\SC(NS(=O)(=O)c2cccc3ccccc23)=NC1=O :: 5.19
CCCCCCC/C=C1\SC(NS(=O)(=O)c2cccc3ccccc23)=NC1=O :: 5.23

# context switch: different molecule, same pIC50
In plain terms, O=C1N=C(NS(=O)(=O)c2cccc3ccccc23)S/C1=C\C1CC=CCC1 (stereo not drawn) has a documented pIC50 of 5.37

---

Can you tell me IC50 for the items I'm about to list?
# subjectOfTest: full length human Dynamin I (Homo sapiens, UniProt Q05193)
# Construct: full length human Dynamin I expressed in Sf21 insect cells; made in house; host or cells: Sf21 insect cells
# methodNotes: Dynamin GTPase activity, Malachite Green phosphate detection assay
# Format: biochemical
# assaySetup: Table 3, library 3; n = 1 unless otherwise stated (41, 42: n = 2); '–' = not active at 100 μM; read-out: Dynamin 1 IC50

O=C1N=C(NS(=O)(=O)c2cccc3ccccc23)S/C1=C\C1CCCCC1 :: > 100 µM

Please give IC50 for each item listed below.
1. O=C1N=C(NS(=O)(=O)c2cccc3ccccc23)S/C1=C\C1CCCC1
2. CCCC/C=C1\SC(NS(=O)(=O)c2cccc3ccccc23)=NC1=O

Found:
> 100 µM
> 100 µM

---

# subjectOfTest: clathrin heavy chain NTD (amino acids 1–364) – amphiphysin 1 B/C domain protein–protein interaction (NTD‐PPI) (Homo sapiens)
# Construct: GST‐tagged clathrin heavy chain NTD (amino acids 1–364); made in house
# Sequence (Q00610 1-364): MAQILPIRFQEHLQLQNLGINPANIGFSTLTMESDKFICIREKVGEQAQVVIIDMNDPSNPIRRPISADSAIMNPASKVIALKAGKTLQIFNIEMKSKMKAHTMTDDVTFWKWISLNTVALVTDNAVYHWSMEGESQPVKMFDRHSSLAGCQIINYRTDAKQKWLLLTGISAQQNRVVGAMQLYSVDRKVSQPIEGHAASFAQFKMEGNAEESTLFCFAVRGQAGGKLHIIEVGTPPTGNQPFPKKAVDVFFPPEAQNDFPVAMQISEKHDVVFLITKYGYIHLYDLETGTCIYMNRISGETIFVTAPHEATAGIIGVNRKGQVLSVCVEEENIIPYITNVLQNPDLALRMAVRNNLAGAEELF
# methodNotes: ELISA-based clathrin inhibitor binding assay (NTD-PPI)
# assaySetup: Table 4, library 4; ELISA, average of duplicate measurements (n = 2); read-out: NTD‐PPI IC50
measuredMetric: pIC50
Answers are plain numbers, as −log10 of the molar value.

Here is how some compounds turned out for pIC50.
O=C1N=C(NS(=O)(=O)c2cccc3ccccc23)S/C1=C\c1cn(S(=O)(=O)c2ccccc2)c2ccccc12 :: 4.57
O=C1N=C(NS(=O)(=O)c2cccc3ccccc23)S/C1=C\c1cc[nH]c1 :: 5.52
O=C1N=C(NS(=O)(=O)c2cccc3ccccc23)S/C1=C\c1ccoc1 :: 5.68

// sample "Cn1cc(/C=C2\SC(NS(=O)(=O)c3cccc4ccccc34)=NC2=O)c2ccccc21" , its pIC50 was 5.52

---

# subjectOfTest: clathrin heavy chain NTD (amino acids 1–364) – amphiphysin 1 B/C domain protein–protein interaction (NTD‐PPI) (Homo sapiens, UniProt Q00610)
# Construct: GST‐tagged clathrin heavy chain NTD (amino acids 1–364); made in house
# Sequence (Q00610 1-364): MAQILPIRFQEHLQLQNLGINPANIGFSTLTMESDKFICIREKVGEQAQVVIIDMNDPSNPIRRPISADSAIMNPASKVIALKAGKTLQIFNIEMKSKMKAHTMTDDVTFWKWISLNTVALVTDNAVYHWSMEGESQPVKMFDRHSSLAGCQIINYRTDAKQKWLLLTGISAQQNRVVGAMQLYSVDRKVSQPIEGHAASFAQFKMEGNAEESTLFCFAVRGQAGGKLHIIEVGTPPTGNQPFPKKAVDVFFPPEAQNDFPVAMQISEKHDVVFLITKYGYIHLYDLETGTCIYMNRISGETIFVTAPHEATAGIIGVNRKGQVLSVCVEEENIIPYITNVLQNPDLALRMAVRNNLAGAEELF
# methodNotes: ELISA-based clathrin inhibitor binding assay (NTD-PPI)
# assaySetup: read-out: NTD‐PPI IC50 (ELISA)
I'd be grateful if you could share measured IC50 for these entries.
Give bare numbers, in µM.

O=C1N=C(NS(=O)(=O)c2cccc3ccccc23)S/C1=C\c1cc[nH]c1 :: 33

List the reported IC50 of each compound below.
1. Cc1ccc2[nH]cc(/C=C3\SC(NS(=O)(=O)c4cccc5ccccc45)=NC3=O)c2c1
2. O=C1N=C(NS(=O)(=O)c2cccc3ccccc23)S/C1=C\c1ccc(Cl)o1

Found:
1: 3.5; 2: 3.3
